Where these numbers come from: PubChem BioAssay AID1845209

compounds and their reported pIC50
# System: NCI-H211 tumor spheroids, viability percent test/control
# Protocol Details: Anticancer human tumor NCI-H211 cell line growth inhibition;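 also: spheroids exposed to agents for seven days before readout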
# Study Conditions: curve of first compound; second compound 0.000949 µM; spheroids with HUVEC and MSC
pIC50: −log10 of the molar value.

Before answering, review these 3 worked examples.
# Compound, Measurement Type, Value Measured
measured = [
    ("O=C(c1cc(Cc2n[nH]c(=O)c3ccccc23)ccc1F)N1CCN(C(=O)C2CC2)CC1 + COc1cc2c(cc1O)CCNC21CSC2c3c(OC(C)=O)c(C)c4c(c3C(COC1=O)N1C(O)C3Cc5cc(C)c(OC)c(O)c5C(C21)N3C)OCO4", "pIC50", "> 7.02"),
    ("CC(C)n1c(=O)n(C)c2cnc3cc(F)c(-c4ccc(OCCCN5CCCCC5)nc4)cc3c21 + COc1cc2c(cc1O)CCNC21CSC2c3c(OC(C)=O)c(C)c4c(c3C(COC1=O)N1C(O)C3Cc5cc(C)c(OC)c(O)c5C(C21)N3C)OCO4", "pIC50", "> 7.50"),
    ("Cc1sc2c(c1C)C(c1ccc(Cl)cc1)=NC(CC(=O)Nc1ccc(O)cc1)c1nnc(C)n1-2 (centres undefined) + COc1cc2c(cc1O)CCNC21CSC2c3c(OC(C)=O)c(C)c4c(c3C(COC1=O)N1C(O)C3Cc5cc(C)c(OC)c(O)c5C(C21)N3C)OCO4", "pIC50", "> 8.02"),
]

Here is the next item to consider.
**Q:** Look at this compound and give its reported pIC50. CC1COCCN1c1cc(-c2ccnn2C)c2ccnc(-c3ccn[nH]3)c2n1 (centres undefined) + COc1cc2c(cc1O)CCNC21CSC2c3c(OC(C)=O)c(C)c4c(c3C(COC1=O)N1C(O)C3Cc5cc(C)c(OC)c(O)c5C(C21)N3C)OCO4
**A:** > 7.50

###

# System: NCI-H211 tumor spheroids, viability percent test/control
# Protocol Details: Anticancer human tumor NCI-H211 cell line growth inhibition;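 also: spheroids exposed to agents for seven days before readout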
# Study Conditions: curve of first compound; second compound 1 µM; spheroids with HUVEC and MSC
compounds and their reported IC50

**Q:** Notebook entry, NCI-H211 tumor spheroids, viability percent test/control assay: IC50 of [2H]c1nc(C)nc([2H])c1-c1cc(NC[C@@H](C)c2cccc3c(C(=O)NC)ccnc23)ncn1 + Cn1nnc2c(C(N)=O)ncn2c1=O = ?
**A:** > 10000 nM

**Q:** Do the same for O=C(c1cc(Cc2n[nH]c(=O)c3ccccc23)ccc1F)N1CCN(C(=O)C2CC2)CC1 + Cn1nnc2c(C(N)=O)ncn2c1=O please
**A:** < 94.9 nM

**Q:** Do the same for Cc1sc2c(c1C)C(c1ccc(Cl)cc1)=NC(CC(=O)Nc1ccc(O)cc1)c1nnc(C)n1-2 (stereo not drawn) + Cn1nnc2c(C(N)=O)ncn2c1=O please
**A:** < 9.49 nM
